biological target: human orexin type 1 receptor (hOX1R) (Homo sapiens, UniProt O43613); construct: expressed in transfected cells; assay: Measurement of orexin type 1 receptor agonist activity (FLIPR TETRA intracellular Ca2+ fluorescence); assay type: cell-based; conditions: CHO cells expressing hOX1R; agonist activity, Ca2+ fluorescence; read-out: hOX1 pEC50 (converted)
Sequence (O43613 whole entry): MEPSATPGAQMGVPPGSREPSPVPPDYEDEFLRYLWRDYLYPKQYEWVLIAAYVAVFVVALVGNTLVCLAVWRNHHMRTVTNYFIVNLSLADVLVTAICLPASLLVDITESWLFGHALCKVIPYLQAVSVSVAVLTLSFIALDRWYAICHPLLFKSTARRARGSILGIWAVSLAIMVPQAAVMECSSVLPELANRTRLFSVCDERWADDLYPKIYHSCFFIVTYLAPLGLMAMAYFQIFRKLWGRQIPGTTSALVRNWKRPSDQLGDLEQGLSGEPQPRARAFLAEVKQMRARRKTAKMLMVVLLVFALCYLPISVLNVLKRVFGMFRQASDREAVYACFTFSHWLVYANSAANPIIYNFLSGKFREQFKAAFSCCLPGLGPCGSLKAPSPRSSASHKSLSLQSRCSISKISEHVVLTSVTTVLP
Numbered stars: 1 amine (or outer) side, 2 acyl side, 3 side chain; on linkers, the order of the positions; unused ones are H or OH. Square brackets hold non-standard residues; d marks the D form. Peptide text beside a SMILES is read from it. hArg(Et2) = CCN=C(NCC)NCCCC[C@H](N)C(=O)O; Phe(3-Br) = N[C@@H](Cc1cccc(Br)c1)C(=O)O; X1 = O=C(CN(CCc1ccc2ccccc2c1)[*:1])[*:2]; Gly(NCH2CH2Ph) = O=C(O)CNCCc1ccccc1; PEG6 = NCCOCCOCCOCCOCCOCCOCCC(=O)O; Hyp = O=C(O)[C@@H]1C[C@@H](O)CN1; Hpg = N[C@H](C(=O)O)c1ccc(O)cc1; Aoc(2) = CCCCCC[C@H](N)C(=O)O; Phg = N[C@H](C(=O)O)c1ccccc1; Nle = CCCC[C@H](N)C(=O)O
EC50 for assorted compounds

These solved cases illustrate the format of a correct answer.
- compound: "CCCCCC[C@H](NC(=O)[C@@H](NC(=O)[C@H](CC(C)C)NC(=O)[C@@H](NC(=O)CNC(=O)[C@@H](NC(=O)[C@H](C)NC(=O)[C@H](CCC(N)=O)NC(=O)[C@H](CC(N)=O)NC(=O)CN(CCc1ccccc1)C(=O)[C@@H](N)CCCCN/C(=N/CC)NCC)c1ccc(O)cc1)[C@@H](C)CC)[C@@H](C)O)C(N)=O [Peptide 23] (H-[hArg(Et2)][Gly(NCH2CH2Ph)]NQA[Hpg]GILT[Aoc(2)]-NH2)"
  endpoint_label: "EC50"
  measured_result: "> 10 nM"
- compound: "CC[C@H](C)[C@H](NC(=O)CNC(=O)[C@@H](NC(=O)[C@H](C)NC(=O)[C@@H]1C[C@@H](O)CN1C(=O)[C@H](CC(N)=O)NC(=O)CN(CCc1ccc2ccccc2c1)C(=O)[C@@H](N)CCCNC(=N)N)c1ccccc1)C(=O)N[C@@H](CC(C)C)C(=O)N[C@H](C(=O)N[C@@H](Cc1cccc(Br)c1)C(N)=O)[C@@H](C)O [Peptide 13] (H-R[X1]N[Hyp]A[Phg]GILT[Phe(3-Br)]-NH2)"
  endpoint_label: "EC50"
  measured_result: "1 to 10 nM"

// below: EC50 requested for another compound
Looking for the measured EC50 of CCCC[C@H](NC(=O)[C@@H](NC(=O)[C@H](CC(C)C)NC(=O)[C@@H](NC(=O)CNC(=O)[C@@H](NC(=O)[C@H](C)NC(=O)[C@@H]1C[C@@H](O)CN1C(=O)[C@H](CC(N)=O)NC(=O)CN(CCc1ccccc1)C(=O)[C@H](CCCNC(=N)N)NC(=O)CCOCCOCCOCCOCCOCCOCCN)c1ccccc1)[C@@H](C)CC)[C@@H](C)O)C(N)=O [Peptide 28] (H-[PEG6]R[Gly(NCH2CH2Ph)]N[Hyp]A[Phg]GILT[Nle]-NH2) , can you help?
> 10 nM

====

EC50 for assorted molecules
target: human orexin type 1 receptor (hOX1R) (Homo sapiens, UniProt O43613); construct: expressed in transfected cells; test: Measurement of orexin type 1 receptor agonist activity (FLIPR TETRA intracellular Ca2+ fluorescence); format: cell-based; conditions: CHO cells expressing hOX1R; agonist activity, Ca2+ fluorescence; read-out: hOX1 pEC50 (converted)
Numbered stars: 1 amine (or outer) side, 2 acyl side, 3 side chain; on linkers, the order of the positions; unused ones are H or OH. Square brackets hold non-standard residues; d marks the D form. Peptide text beside a SMILES is read from it. PEG8 = NCCOCCOCCOCCOCCOCCOCCOCCOCCC(=O)O; X3 = NCCc1cccc(CCN(CC(=O)[*:2])[*:1])c1; Gly(NCH2CH2Ph) = O=C(O)CNCCc1ccccc1; PEG6 = NCCOCCOCCOCCOCCOCCOCCC(=O)O; Hyp = O=C(O)[C@@H]1C[C@@H](O)CN1; NMeN = CN[C@@H](CC(N)=O)C(=O)O; Aoc(2) = CCCCCC[C@H](N)C(=O)O; Ahp(2) = CCCCC[C@H](N)C(=O)O; Phg = N[C@H](C(=O)O)c1ccccc1

These solved cases illustrate the format of a correct answer.
- molecule: "CCCCC[C@H](NC(=O)[C@@H](NC(=O)[C@H](CC(C)C)NC(=O)[C@@H](NC(=O)CNC(=O)[C@@H](NC(=O)[C@H](C)NC(=O)[C@@H]1C[C@@H](O)CN1C(=O)[C@H](CC(N)=O)NC(=O)CN(CCc1ccccc1)C(=O)[C@H](CCCNC(=N)N)NC(=O)CCOCCOCCOCCOCCOCCOCCN)c1ccccc1)[C@@H](C)CC)[C@@H](C)O)C(N)=O [Peptide 27] (H-[PEG6]R[Gly(NCH2CH2Ph)]N[Hyp]A[Phg]GILT[Ahp(2)]-NH2)"
  measured_result: "> 10 nM"
- molecule: "CCCCCC[C@H](NC(=O)[C@@H](NC(=O)[C@H](CC(C)C)NC(=O)[C@@H](NC(=O)CNC(=O)[C@@H](NC(=O)[C@H](C)NC(=O)[C@@H]1C[C@@H](O)CN1C(=O)[C@H](CC(N)=O)NC(=O)CN(CCc1ccccc1)C(=O)[C@H](CCCNC(=N)N)NC(=O)CCOCCOCCOCCOCCOCCOCCOCCOCCN)c1ccccc1)[C@@H](C)CC)[C@@H](C)O)C(N)=O [Peptide 8] (H-[PEG8]R[Gly(NCH2CH2Ph)]N[Hyp]A[Phg]GILT[Aoc(2)]-NH2)"
  measured_result: "> 10 nM"

// below: EC50 requested for another molecule
Looking for the measured EC50 of CCCCCC[C@H](NC(=O)[C@@H](NC(=O)[C@H](CC(C)C)NC(=O)[C@@H](NC(=O)CNC(=O)[C@@H](NC(=O)[C@H](C)NC(=O)[C@@H]1C[C@@H](O)CN1C(=O)[C@H](CC(N)=O)N(C)C(=O)CN(CCc1cccc(CCN)c1)C(=O)[C@@H](N)CCCNC(=N)N)c1ccccc1)[C@@H](C)CC)[C@@H](C)O)C(N)=O [Peptide 19] (H-R[X3][NMeN][Hyp]A[Phg]GILT[Aoc(2)]-NH2) , can you help?
> 10 nM
